- test.system: GPR68/OGR1 (Homo sapiens, UniProt Q15743)
- Construct: host or cells: Chem-1 (CHEM1-OGR1) cells
- Sequence (Q15743 whole entry): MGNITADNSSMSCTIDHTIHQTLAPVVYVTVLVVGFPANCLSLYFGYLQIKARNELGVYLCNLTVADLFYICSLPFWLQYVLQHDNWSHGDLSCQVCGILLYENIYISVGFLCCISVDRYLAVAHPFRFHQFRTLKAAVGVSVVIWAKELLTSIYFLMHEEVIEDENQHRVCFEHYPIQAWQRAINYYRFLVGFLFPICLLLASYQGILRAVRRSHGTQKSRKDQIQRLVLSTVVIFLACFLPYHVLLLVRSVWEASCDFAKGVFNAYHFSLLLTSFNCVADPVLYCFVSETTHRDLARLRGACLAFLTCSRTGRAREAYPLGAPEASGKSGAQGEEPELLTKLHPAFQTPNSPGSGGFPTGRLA
- experimental.details: CHEM1-OGR1 cells Fluo-8 calcium assay, acidified media pH 6.4
- Type: cell-based
- cond: concentration causing 50% effective inhibition of calcium response to pH 6.4; read-out: EC50
result.type: EC50 (µM)
The reply should contain only the number, in µM.

- molecule: "O=C1Nc2ccc(Cl)cc2C12NN=C(c1ccccc1)S2 (stereo not shown) [OGM7]"
  readout.unit: "µM"
  quantitative.result: 1.17
- molecule: "COc1ccc2c(c1)NC(=O)C21NN=C(c2ccncc2)S1 (stereo not shown) [OGM59]"
  readout.unit: "µM"
  quantitative.result: 0.832
- molecule: "COC(=O)c1ccc2c(c1)C1(NN=C(c3ccccc3)S1)C(=O)N2 (stereo not shown) [OGM41]"
  readout.unit: "µM"
  quantitative.result: 2.26
- molecule: "CCc1ccc2c(c1)C1(NN=C(c3ccc4ncccc4c3)S1)C(=O)N2 (stereo not shown) [OGM40]"
  readout.unit: "µM"
  quantitative.result: 1.19
- molecule: "COc1ccc(C2=NNC3(S2)C(=O)Nc2ccccc23)cc1 (stereo not shown) [OGM10]"
  readout.unit: "µM"
  quantitative.result: 1.44
- molecule: "CN1C(=O)C2(NN=C(c3ccccc3)S2)c2cc(Br)ccc21 (stereo not shown) [OGM36]"
  readout.unit: "µM"
  quantitative.result: 5.6
- molecule: "COC(=O)c1ccc2c(c1)C1(NN=C(c3cccc4cccnc34)S1)C(=O)N2 (stereo not shown) [OGM44]"
  readout.unit: "µM"
  quantitative.result: 4.05
- molecule: "COC(=O)c1ccc2c(c1)C1(NN=C(c3ccc4ncccc4c3)S1)C(=O)N2 (stereo not shown) [OGM37]"
  readout.unit: "µM"
  quantitative.result: 3.69
- molecule: "NS(=O)(=O)c1ccc2c(c1)C1(NN=C(c3ccc4ncccc4c3)S1)C(=O)N2 (stereo not shown) [OGM55]"
  readout.unit: "µM"
  quantitative.result: 3.93
- molecule: "CC(C)=CCN1C(=O)C2(NN=C(c3ccc(Cl)cc3)S2)c2cc(Cl)ccc21 (stereo not shown) [OGM31]"
  readout.unit: "µM"
  quantitative.result: 9.08

Request: So what EC50 did CCc1ccc2c(c1)C1(NN=C(c3cccc4cccnc34)S1)C(=O)N2 (stereo not shown) [OGM58] get with GPR68/OGR1 (Homo sapiens, UniProt Q15743)?
Response: 5.48

Request: Can you look up EC50 on GPR68/OGR1 (Homo sapiens, UniProt Q15743) for O=C1Nc2ccc(Cl)cc2C12NN=C(c1cccc3ccccc13)S2 (stereo not shown) [OGM23] ?
Response: 0.5

Request: What value of EC50 on GPR68/OGR1 (Homo sapiens, UniProt Q15743) does O=C(O)c1ccc2c(c1)C1(NN=C(c3ccccc3)S1)C(=O)N2 (stereo not shown) [OGM42] have?
Response: 1.88

Request: Notebook entry, GPR68/OGR1 (Homo sapiens, UniProt Q15743) assay: EC50 of O=C1Nc2ccc(F)cc2C12NN=C(c1ccc(Br)cc1)S2 (stereo not shown) [OGM74] = ?
Response: 0.296

====

- test.system: Lpa1 (Homo sapiens)
- Sequence (Q92633 whole entry, species assumed): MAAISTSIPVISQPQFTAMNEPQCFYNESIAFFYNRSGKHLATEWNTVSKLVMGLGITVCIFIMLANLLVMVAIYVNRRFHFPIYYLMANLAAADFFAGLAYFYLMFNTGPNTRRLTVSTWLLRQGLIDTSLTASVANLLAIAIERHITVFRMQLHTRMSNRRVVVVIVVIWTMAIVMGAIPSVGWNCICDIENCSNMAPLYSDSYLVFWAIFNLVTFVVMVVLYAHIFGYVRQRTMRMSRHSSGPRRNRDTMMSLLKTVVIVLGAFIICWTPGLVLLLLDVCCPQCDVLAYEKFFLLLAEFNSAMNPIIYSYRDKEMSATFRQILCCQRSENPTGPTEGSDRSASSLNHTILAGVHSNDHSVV
- experimental.details: Lpa1 activity of OGM analogs (Table 5)
Each entry below carries its recorded pIC50.
pIC50 is defined as minus the log10 of a concentration measured in mol/L.

Consider the following illustrative entries.
- molecule: "CCc1ccc2c(c1)C1(NN=C(c3cccc4ccccc34)S1)C(=O)N2 (stereo not shown)"
  quantitative.result: 5.06
- molecule: "CCc1ccc2c(c1)C1(NN=C(c3ccccc3O)S1)C(=O)N2 (stereo not shown)"
  quantitative.result: 5.85
- molecule: "Cc1noc(-c2ccc(CSCCC(=O)O)cc2)c1NC(=O)OC(C)c1ccccc1Cl (stereo not shown)"
  quantitative.result: 6.60

Lab note: next molecule to report on.
Request: Value wanted: pIC50 (Lpa1 (Homo sapiens)) of entry Cc1ccc2c(c1)C1(NN=C(c3ccccc3)S1)C(=O)N2 (stereo not shown)
Response: 5.19
